# System: LXFL 529 NSCLC
# Assay summary: NCI tumour cell line growth inhibition, 48 h
Property label: TGI

Below, each entry is followed by its recorded TGI result.
Compound: Clc1ccc(-c2nnc(-c3nn(-c4ccccc4)c4nc5ccccc5nc34)o2)cc1
Reported result: > 100 µM
//
Compound: O=C(/C=C/c1ccc(-c2ccccc2)cc1)c1ccccc1
Reported result: 42.2 µM
//
Compound: CC1=NC(C)=C(/C(C)=N/NC(=O)c2ccccc2O)C(C)/C1=C(/C)NNC(=O)c1ccccc1O (stereo not given)
Reported result: > 100 µM
//
Compound: Cc1ccc(NC(=O)C(=O)C2C(=O)NC(=O)NC2=O)c(C)c1
Reported result: > 100 µM

--- query ---
Reported TGI for Nc1ccc(C(=O)CC2(O)C(=O)Nc3ccccc32)cc1 (stereo not given) : what is it?
> 100 µM
